# protocol.summary: Selectivity ratio of EC50 for human MRC5 cells to EC50 for blood stream form of Trypanosoma brucei
# Format: ADME, cell-based
# test.conditions: read-out: Ratio EC50
Answer each item with its documented selectivity ratio.
Answers are plain numbers.

Ask: Return selectivity ratio for the following compound: Nc1nc(N)nc(NCCCOC(=O)CCc2ccc(S(=O)(=O)n3c(C4(O)C=CC(=O)C=C4)cc4ccccc43)cc2)n1
Reply: 2.7

Ask: Entry O=C1C=CC(O)(c2cc3ccc(F)cc3n2S(=O)(=O)c2ccccc2)C=C1 needs its selectivity ratio filled in; supply it.
Reply: 2

Ask: Give the reported selectivity ratio for this compound. CC(=O)NCCc1ccc(S(=O)(=O)n2c(C3(O)C=CC(=O)C=C3)cc3ccccc32)cc1
Reply: 3

Turning to the following compound.
Ask: Answer with the recorded selectivity ratio for the compound listed here: O=C1C=CC(O)(c2nc3ccccc3s2)C=C1
Reply: 2

----------
# protocol.summary: Selectivity ratio of EC50 for human MRC5 cells to EC50 for blood stream form of Trypanosoma brucei
# Assay type: ADME, cell-based
# test.conditions: read-out: Ratio EC50
property: selectivity ratio
Answers are plain numbers.

The following compounds have reported results that may help.
Ask: Give selectivity ratio for O=C1C=CC(O)(C#Cc2ccc(CC(=O)Nc3ccccc3)cc2)C=C1
Reply: 0.3

Ask: Indicate its recorded selectivity ratio; the compound in question is CCOC(=O)Nc1ccc(S(=O)(=O)n2c(C3(O)C=CC(=O)C=C3)cc3ccccc32)cc1
Reply: 2

Ask: Fill in reported selectivity ratio for this entry: COc1ccc(Cn2cc(C3(O)C=CC(=O)C=C3)nn2)cc1
Reply: 3

Hey, quick one: what's selectivity ratio for each of these?
1. O=C1C=CC(O)(c2cc3ccccc3n2S(=O)(=O)c2ccc(CCC(=O)N3CCOCC3)cc2)C=C1
2. Cc1ccc(S(=O)(=O)n2c(C3(O)C=CC(=O)C=C3)cc3ccncc32)cc1
3. O=C1C=CC(O)(c2nc3ccccc3s2)C(Cl)=C1 (stereo not drawn)
4. O=C1C=CC(O)(c2cc3cnccc3n2S(=O)(=O)c2ccccc2)C=C1
5. COc1ccc(-n2cc(C3(O)C=CC(=O)C=C3)nn2)cc1
6. O=C1C=CC(O)(c2cn(-c3ccc4ncsc4c3)nn2)C=C1

Reply:
1. 2
2. 2
3. 1
4. 2
5. 2
6. 3

Below is a list of compounds. For each, state its recorded selectivity ratio.
1. CN1CCN(C(=O)CCc2ccc(S(=O)(=O)n3c(C4(O)C=CC(=O)C=C4)cc4ccccc43)cc2)CC1
2. CN1CCN(CCCc2ccc(S(=O)(=O)n3c(C4(O)C=CC(=O)C=C4)cc4ccccc43)cc2)CC1
3. COC(=O)CCc1ccc(S(=O)(=O)n2c(C3(O)C=CC(=O)C=C3)cc3ccccc32)cc1
4. O=C1C=CC(O)(c2cc3ccccc3n2S(=O)(=O)c2ccccc2)C=C1
5. O=C1C=CC(O)(c2cc3ccccc3n2S(=O)(=O)c2ccc(CCC(=O)O)cc2)C=C1
6. CS(=O)(=O)c1ccc(S(=O)(=O)n2c(C3(O)C=CC(=O)C=C3)cc3ccccc32)cc1

Reply:
3
3
2
2
4.5
2

Would you be so kind as to report selectivity ratio for each listed record?
1. O=C1C=CC(O)(c2cc3ccccc3n2S(=O)(=O)c2ccc(CCCO)cc2)C=C1
2. Nc1nc(N)nc(NCCCNC(=O)CCc2ccc(S(=O)(=O)n3c(C4(O)C=CC(=O)C=C4)cc4ccccc43)cc2)n1
3. O=C1C=CC(O)(c2cn(CCC(=O)Nc3ccccc3)nn2)C=C1

Reply:
1: 2; 2: 5.6; 3: 7
